assay: yeast display, Sf9 membrane polyspecificity reagent, FACS + sequencing; frameworks hold sequencing errors
measurement-kind: polyreactivity (PSR sort gate)

Please review the entries below; each comes with its answer.
macromolecule-sequence	assay-result
QVQLVESGGGLVQAGGSLRLSCAASGSTFKYYAMGWYRQAPGKERELVARISSGGNTKYADSVKGRFTISRDNAMNTVYLQMNSLKPEDTAVYYCAAGYPGVGYAYDYWGQGTQVTVSS	high polyreactivity
QVQLVESGGGLVQAGGSLRLSCAASGSSSRRMIMGRYRQAPGKERELVAAISGSGGSTYYADSVKGRFTISRDNAKNTVYLQMNSLKPEDTAVYYCAAVLQSCYGYEYWGQGTQVTVSS	high polyreactivity
QVQLVESGGGLVQAGGSLRLSCAASGITFIVNAMGWYRQAPGKERELVARITTSGGSTSYADSVKGRFTISRDNAKYTVYLQMYSLKPEDSAVYYCAADRGGYYSEYDYWGQGTQVTVSS	low polyreactivity
QVQLVESGGGLVQAGGSLRLSCAASGSIFKPYAMGWYRQAPGKERELVAAISGIGGSTYYADSVKGRFTISRDNAKNTVYLQMNCLKPEDTAVYYCAADTFFKIFSEYNYWGQGTQVTVSS	high polyreactivity

Now look at this entry.
## Input polyreactivity (PSR sort gate) lookup needed for QVQLVESGGGLVQAGGSLRLSCAASGITFGRNTMGWYRQAPGKERELVAAIRSGGSTNYADSVKGRFSISRDNAKNTVYLLMNSLKPEDPAVYYWNAQPWVRFWPYDYWGQGTQVTVSS , thanks.
## Output low polyreactivity
